PBM E-score overview
Molecular target: Abf1 (UniProt P14164)
Sequence: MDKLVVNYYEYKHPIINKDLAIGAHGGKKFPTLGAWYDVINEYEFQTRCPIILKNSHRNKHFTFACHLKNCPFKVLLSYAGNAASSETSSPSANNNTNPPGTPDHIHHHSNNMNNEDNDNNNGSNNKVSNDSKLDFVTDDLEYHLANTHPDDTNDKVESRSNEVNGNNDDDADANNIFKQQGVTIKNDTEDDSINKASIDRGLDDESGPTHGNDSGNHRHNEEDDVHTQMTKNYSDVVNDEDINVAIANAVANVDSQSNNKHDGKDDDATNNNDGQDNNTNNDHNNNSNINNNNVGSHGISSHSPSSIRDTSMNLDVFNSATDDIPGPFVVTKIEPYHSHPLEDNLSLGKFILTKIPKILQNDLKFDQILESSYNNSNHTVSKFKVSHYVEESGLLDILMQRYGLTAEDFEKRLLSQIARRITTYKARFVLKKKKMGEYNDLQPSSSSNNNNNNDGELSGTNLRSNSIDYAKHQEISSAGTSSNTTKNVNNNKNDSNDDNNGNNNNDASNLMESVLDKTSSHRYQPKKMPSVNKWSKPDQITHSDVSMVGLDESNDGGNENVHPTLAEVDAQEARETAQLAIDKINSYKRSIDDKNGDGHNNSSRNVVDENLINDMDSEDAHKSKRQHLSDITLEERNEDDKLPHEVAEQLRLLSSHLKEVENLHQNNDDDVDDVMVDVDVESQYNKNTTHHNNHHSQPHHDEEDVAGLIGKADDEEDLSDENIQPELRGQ
Test: PBM E-score (8-mer binding enrichment) (E-score (-0.5 to 0.5)); higher = stronger / more preferred TF binding
Conditions: protein concentration: 200 nM; construct: GST-full length
Whole data set: some 33,000 sequences, median “E-score (-0.5 to 0.5)” near -0.015, cut for the highest 2% near 0.3. What follows is part of a selection rich in the highest values, with near analogues and random picks from the rest.
Measured Endpoint: PBM E-score

{"columns": ["Biopolymer Sequence", "Measured Endpoint", "Observed"],
 "data": [
  ["GATTGTCA", "PBM E-score", 0.268],
  ["TAGGCCGA", "PBM E-score", -0.106],
  ["AGCGAGAA", "PBM E-score", -0.0126],
  ["GAACGAAC", "PBM E-score", 0.121],
  ["CAATGCCG", "PBM E-score", -0.0313],
  ["GCACGAAA", "PBM E-score", 0.336],
  ["AGGCCGTG", "PBM E-score", 0.092],
  ["AATTGTCC", "PBM E-score", -0.0973],
  ["AGACGAAC", "PBM E-score", 0.24],
  ["GTACGAAA", "PBM E-score", 0.376],
  ["GTACGAAC", "PBM E-score", 0.418],
  ["CCCCTGGA", "PBM E-score", -0.17],
  ["AATTGTCA", "PBM E-score", 0.335]
]}
